Some sequences, each annotated with its measured apparent KD of K4 kissing-loop reporter.
System: K4 kissing-loop RNA reporter
Test name: apparent KD of K4 kissing-loop reporter; higher = weaker reporter binding
Assay context: Eterna round: R107; input ligand: FMN 200 uM
A number alone suffices; assume nM.

Field: example entries. Status: answers known.
Ordered residues: AAACGCUGUGAAUAACACAGCGAAAAUUCGCGAGGACCGGUACGGCCGCCACUCGCUAACUGCGAGUGAUGUUCGAUAAUAAAAU [Mat - Mod of OpenEnded 3 - D11]
Units symbol: nM
Measured: 182
--
Ordered residues: GUCUCAAAAGAGGCAAGCACUAACGAGGACAAGGAUAUCAUCUCAAUGAGAAGGUGUCCUCGUCCUUAGUGAUGUUAAGGAGUGC [Omei KL FMN A SS E v5]
Units symbol: nM
Measured: 348
--
Ordered residues: UGUCAUUGGUCUGAUACCAGUACCCUUGGCAGCCAAGGAGUGAUGUUCCAAGGAUACCAGUACCCUUGGCAGCAGACCGAUGACU [TheoBS 25 #DoubleAptamer #SwitchBubble]
Units symbol: nM
Measured: 884
--
Ordered residues: AAACUUGCAGUGAUGUUGCAAGUAGGUGAUACCAGCAUCGAAAGAUGCCCUUGGCAGCACCAACACUGCAAGUAAGUAUCACCAA [(H1)-(H2)-(T1)-(T2)-(H)'-(T)'_Design1]
Units symbol: nM
Measured: 116
--
Ordered residues: GCCAGAUAGACGGCCGCCACUUAUAAGUUUCAGUGAUGUUGGAACGGCAAAUGCCGAACACAAUAGAGGACCGGGUCAACUGGCG [Same State Tryptophan B GF 1]
Units symbol: nM
Measured: 920

Request: Given GGCUUAUUCUAUGAUACCAGCGUCACAUCGGGACUGCGCACGCAGCAGGCGAGUGAUGUUCGCCCUUGGCAGCAUCUCGGCGACU [theeternabot_exclusion_KL_Theo_B_26] , state its recorded apparent KD of K4 kissing-loop reporter.
Result: 373

Request: Cool, now UUUUAAAUGUCUGAUACCAGAGAAAAUUUAUGUAGUGAUGUUAUAUACAAAAUAAAUAAGCUCCCUUGGCAGCAGUAUUAAUUUU [AstrosExc-TheB#7]
Result: 465

Request: Also need GAUCUGAACGAAAGUUCGGAUCAUUCCGAUACCAGUAUGGAUUCAUACCCUUGGCAGCGGGAUUCUGCUAUGGAGUGAUGUUCCA [Theophylline A K4 15] , thanks.
Result: 422

Request: Again, but for ACAGGAUCGAAAGAUCCUGAGCAGUCAAACCGAGGACCGGUACGGCCGCCACUCGGAGUGAUGUUCCGAAGACUGCAAAAUAAAA [#SwitchBubble 1]
Result: 539

Request: Thanks! And CCAUUCUUUUACGAUACCAGUCUAAUAUAUUGAAUCAAAACCCUCGCCGAGUGAUGUUCGGACCCUUGGCAGCGUCUGCGAGAGG [xwxxtkmullin] ?
Result: 629

Request: Now try CUAUGGAAACAUAGUGAUCGGGAAACCGAUACCAGUAUGGAAACAUACCCUUGGCAGCGGAAUGAUCUAACGGAGUGAUGUUCCG [Theophylline A K4 23] .
Result: 492

Request: What do we get for UAGCGUAUCAGAGGAUAUGAUAUGUUAUGCAGUGAUGUUGCAUGAUGUAGCAGAAUUCUGAGUGUAUCAGAAGGCUGAUAUGCUA [FMN B Ex t3] ?
Result: 171

====

apparent KD of K4 kissing-loop reporter reference
Test system: K4 kissing-loop RNA reporter;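 note: bound reporter read as fluorescence of individual clusters on recovered sequencing chips by microscopy, with normalized cluster intensities fitted with a binding model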
Test name: apparent KD of K4 kissing-loop reporter; higher = weaker reporter binding
Assay context: Eterna round: R107; input ligand: theophylline 20 uM
Give your result in nM as a bare value.

Worked examples, 10 sequences total:
Ordered residues: AAAUAUUCGAGUGAUGUUCGUUAAAUUACAGAGGAUAUGCUUAAAAGCAGAAGGCUGUAUUUCUAUUUGUUAUGUAAUUUUAAAA [JR_ExcFMNA_Sub004]
Measured: 196
--
Ordered residues: GUACGGCGGGCGGCCGCCACUGGUAUACGAGUGAUGUUCGGAUAUACGUGAUGUAUGGUAAUUAACAGGACCGGGUCAGGGCCGG [whbob_SS_Tryp_B_t23]
Measured: 147
--
Ordered residues: UGAUAGGACAGAAGGAGCGGAGGUCGUCAAAGACGACCAAUACGUUAAAUAGGAGUGAUGUUCCAGGUAGGUCGCUGUCCUAUCU [ArgBX 30 #SwitchBubble #StaticStem]
Measured: 129
--
Ordered residues: AGUGGUGUAUCUUUUAAGAGUGAUGUUUUUCGAGGACCGGUACGGCCGCCACUCGAGUGAUGAGAGCGUCGUUGUGGUGAUUAGU [#15 K4 Tryptophan A Exclusion]
Measured: 860
--
Ordered residues: UAGUAUAAUCUGUCGUUUACAAUAUUUAGUCAGGAUAUCGUAUAUUCGAGAAGGGACACUAUCUAGUGAUGUUAGAUAUUUCUUU [JR_ExcFMNA_Sub013]
Measured: 71.4
--
Ordered residues: AUUGAACAAGUGAUGUUUGUAUUUUCCGAAGGAGCGUCUAAUAAGACAGGUAGGUCGCGGUUUCUCUUAAUAAUCAGGUCUUUAA [JR_Nu_ExcArginiA_Sub021]
Measured: 292
--
Ordered residues: GUGCGCGGUGCGGCCGCCACUCGGAUGCGAGUGAUGUUCGCGGGACGGACGCAAGUCCGUCAUUCGAGGACCGGGCAUGGCUGCA [#2 Same State - Tryptophan B Attempt #6 (HarryS)]
Measured: 183
--
Ordered residues: AAGUGUCAUUAGACACAGACUACAAUACACUAGGAUAUGCUGAUAAGCAGAAGGAGUGAUGUUCCUUUCAAGUAGUCAAUUAAAU [FmnAX 21 Mat Inspired #SwitchBubble #StaticStem #K4Late]
Measured: 178
--
Ordered residues: UGGAGUUGACGAAAAGUCAACUCCUGAGAUACCAGUGACGAAAGUCACCCUUGGCAGCUCACUGGCAGUGAUGUUGCAAAAUAAA [KL-SSTheo-A4]
Measured: 84.7
--
Ordered residues: UGUGAACAAAAGUAGAGUGGACCACUAUAGCGAGGACCGGUACGGCCGCCACUCGUAUAUAAAUUCAGUGAUGUUGAAAAGAGCU [Exclusion Tryptophan A GF1]
Measured: 260

The record that follows has no apparent KD of K4 kissing-loop reporter shown yet.
Request: Which apparent KD of K4 kissing-loop reporter value belongs to UAGGGCCCUGGAGGAUAUGAGUCUAGUGAUGUUAGGCGGUCCAUGCGCGUGGCGCGUUAUGCCCUUUUAGAAGGCCAGGGCCCUA [#2 Exclusion - FMN B Attempt #17 (HarryS)] ?
Result: 99.3

====

Test system: MS2 coat protein
Test name: apparent KD of MS2 coat protein; designed switch direction (-1 OFF switch, 1 ON switch): 1; higher = weaker reporter binding
Assay context: input ligand: microRNA oligo, concentration not stated
Label label 0 if apparent KD of MS2 coat protein falls below 40 nM; label label 1 in every other case.

Ordered residues: UGUUGUAUUACAGGAUAUCUAGUAAUUUUAUUUAGAGAAGGGUAUUCACAUGAGGAUCACCCAUGUAUAUACGAGGAAGUUGUG [JMF's solution 35] (Eterna round: R96, puzzle: Same State NG 1)
Tgt: MS2 coat protein
Class: label 0
--
Ordered residues: AAAAAACAUGAGGAUCACCCAUGUAAAAAAAACACAGGAUAUCCCUUUUUUAAAAAAAAAGGAGAAGGGUGAAAAA [Nob's Hobby 7 - Jieux - Same State 1] (Eterna round: R96, puzzle: Same State 1)
Tgt: MS2 coat protein
Class: label 0
--
Ordered residues: CGCGCUCCGGUAGGAUAUGAGGUGCCGUAGGGACCCGCCUACGGACAUGAGGAUCACCCAUGUCCUCAGAAGGACCGGGCGUGA [Soenonorma] (Eterna round: R96, puzzle: Same State NG 2)
Tgt: MS2 coat protein
Class: label 0
--
Ordered residues: CGCCAAUUGGCACAGGAUAUGAGCAUGCUCACAUGAGGAUCACCCAUGUGAUUACCAACGCAAAAUCAGAAGGGUGCCCUCGUCA [Beanza] (Eterna round: R96, puzzle: Same State 2)
Tgt: MS2 coat protein
Class: label 1

// switching to the query sequence
Request: Dear colleague, could you confirm whether AGGCUCAGAGCAGGAUAUACGUGGUCACAUGAGGAUCACCCAUGUCUCGAGCUUCGGCUCGAGGCGUAGAAGGGCUCUGAGCCA [SSNG2/6-B1] (Eterna round: R96, puzzle: Same State NG 2) has apparent KD of MS2 coat protein at or above 40 nM?
Result: label 1

====

System: MS2 coat protein
Test name: apparent KD of MS2 coat protein; higher = weaker reporter binding
Assay context: Eterna round: R107; input ligand: theophylline 20 uM
Cut-off 100 nM on apparent KD of MS2 coat protein, inclusive. At or above means Criterion met; below means Criterion not met.

Ordered residues: AACAACAAGGGAAGGAGCGCGAAUAAUAGACAUGAGGAUCACCCAUGUAUCAUGGGAUUAACGCAGGUAGGUCGCCCACAAACAA [#07 Exclusion - Arginine B]
Class: Criterion met

Request: hey, is apparent KD of MS2 coat protein for this one >= 100 nM? AGAGCAUUGACGGCCGCCACUCAUGUCACAUGAGGAUCACCCAUGUGAUGGGUGAUCGCCCGGUUGAGGACCGGGUCAAUGCUCA [Omei Tryp SS B v2]
Result: Criterion met
